# target system: T1, human LTBR ECD (S28-M227) N- and C-terminally extended-Fc-fusion wt kih HRYF-Avi-His biotinylated (P1AE7979) (human, UniProt P0DOX5 223-449 = IgG part, biotinylated avi tag)
# T1 construct: also called hu LTBR
# protocol details: SPR, IgG captured;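 further: rate constants and KD obtained by fitting double-referenced sensorgrams to a 1:1 Langmuir binding model, with dissociation followed for 600 s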
The following binders are shown together with reported T1/2 values.
Your answer should be a plain number; it is taken to be in h.

Below, 3 binders whose answers are already recorded.
binder | T1/2 (h)
P1AE1873 (CBE11) (antibody, human IgG1, kappa, L234A L235A, V domains shown) VH: EVQLVESGGGLVKPGGSLRLSCAASGFTFSDYYMYWFRQAPGKGLEWVATISDGGSYTYYPDSVKGRFTISRDNAKNSLYLQMSSLRAEDTAVYYCAREENGNFYYFDYWGQGTTVTVSS VL: DIQMTQSPSSLSASVGDRVTITCKAGQDIKSYLSWYQQKPGKAPKLLIYYATRLADGVPSRFSGSGSGTDYTLTISSLQPEDFATYYCLQHGESPWTFGGGTKLEIKR | 0.0333
P1AE9459 (antibody, human IgG1, kappa, L234A L235A, V domains shown, human IgG1 PG LALA; from transgenic rabbit immunization) VH: EVQLVESGGGLVQPGGSLRLSCAASGFTFSSYTMNWVRQAPGKGLEWVSGVAPSGDRTYYTDSVKGRFTISRDNAKNTLDLQMTSLRAEDAAIYICAQGFAFTNWGQGTMVTVSS VL: DIQMTQSPSSLSASVGDRVTITCRASQGISSALAWFQQKPGKAPKRLIFDASSLDSGVPSRFSGSGSGTDFTLTISSLQPEDFATYYCQQYNNYPLTFGGGTKVEMKR | 0.883
P1AF0064 (antibody, human IgG1, kappa, L234A L235A, V domains shown, human IgG1 PG LALA constant regions; V domains from rat immunization; also called LTBR (0064)) VH: EVQLQQYGAELGKPGTSVKLSCKVSGYNIGNTYIHWVIQRPGKGLEWIGRIDPTNGNTICTEKFKNKATLTADLSSNTAYMQLSQLKSDDTAIYFCAPTTLTTPDSFAYWGQGTLVTVSS VL: DIQMTQSPSQLSASVGDRVTLSCKASQNIYKYLNWYQQKLGEAPRLLIYSTNILQTGIPSRFSGSGSGTDYTLTISSLQPEDAATYFCQKYYSGFTFGSGTKLEMKR | 2.85

Ask | Can you look up the measured T1/2 of P1AE9452 (antibody, human IgG1, kappa, L234A L235A, V domains shown, human IgG1 PG LALA; from transgenic rabbit immunization; also called LTBR (9452)) VH: EVQLLESGGGLVQPGGSLRLSCAAAGFTFSSYPMTWVRQAPGKGLEWVSLISPSGATTYYADSVKGRFTISRDTSKNTLYLQMNSLRAEDTAVYYCAKNHYPDDVIIKNYYFYGVDVWGQGTTVTVSS VL: DIQMTQSPSSLSASVGDRVTITCRASQDISNYLNWYQQKPGKAPKSLIYAASSLQSGVPSRFSGSGSGTDFTLTISSLQPEDFANYYCQQTHTIPYSFGQGTNLEIKR for me?
Reply | 3.67
